System: IGROV-1
Experiment: NCI tumour cell line growth inhibition, 48 h
Activity calls are given as the source filed them. Rule as the data show it: active = GI50 up to about 1.1 µM and inactive = higher.
Experimental readout: GI50

# Compound, Test system, GI50
measured = [
    ("C/C(=N/NC(=S)N1CCCCCC1)c1cccc(/C(C)=N\\NC(=S)N2CCCCCC2)n1", "IGROV-1", "1.49 µM (inactive)"),
    ("CSc1nc(SC)c2c(CO)c(Br)n(Cc3ccccc3)c2n1", "IGROV-1", "16 µM (inactive)"),
    ("COC(=O)[C@@]12C3=NO[C@]1(C(=O)OC)C(O[Si](C)(C)C(C)(C)C)[C@H]1OC(C)(C)O[C@H]1[C@@H]2C(OCc1ccccc1)CC3 (stereo not given in full)", "IGROV-1", "42.7 µM (inactive)"),
    ("CC(=O)c1c(SCCN2CCOCC2)n(-c2ccccc2)c(=S)n(-c2ccccc2)c1=O", "IGROV-1", "16.9 µM (inactive)"),
    ("CCCCC1=C(C(=O)N2CCOCC2)C2(OCCO2)C1Cl (stereo not given)", "IGROV-1", "32.4 µM (inactive)"),
    ("CC[C@@]12N=C(N(C)C)C[C@]1(O)ON=C2C", "IGROV-1", "> 100 µM (inactive)"),
]

// query Report GI50 from IGROV-1 testing of `C1=N/CCNCCNCC/N=C/c2ccccc2OCc2cccc(n2)COc2ccccc2/1`
// result 52.6 µM (inactive)

// query Report GI50 from IGROV-1 testing of Cc1ccc2c(c1C)CC1(Cc3c(C)ccc(C)c3C1=O)C2=O (stereo not given)
// result > 100 µM (inactive)

// query Report GI50 from IGROV-1 testing of `Cc1c(N2C(=O)/C(=C/C=C/c3ccccc3)N=C2c2ccccc2)c(=O)n(-c2ccccc2)n1C`
// result 16.3 µM (inactive)

// query Report GI50 from IGROV-1 testing of `O=c1c(Nc2ccccc2)cn(CCOc2ccccc2)c(=O)n1CCOc1ccccc1`
// result 36.3 µM (inactive)

====

System: KM-20L2
Assay: NCI tumour cell line growth inhibition, 48 h
Activity calls are given as the source filed them. Cut-off read from the data, not from the text of the source: active = GI50 up to about 1.1 µM and inactive = higher.
Could you please pick one outcome from this set? 1 (yes) (active), 0 (no) (inactive)

Here's what some known entries look like.
# Compound, Label value
data = [
    ("Cc1ccc(OC(=O)N2C/C(=C\\c3ccccc3)C(=O)/C(=C/c3ccccc3)C2)cc1", "0 (no)"),
    ("c1ccc(-c2nnc(-c3nn(-c4ccccc4)c4nc5ccccc5nc34)o2)cc1", "0 (no)"),
    ("O=C1CCC(=O)C(C(=O)CCC(=O)Nc2ccc(Cl)cc2)C1 (stereo unspecified)", "0 (no)"),
    ("O=C(O)c1ccc(C2=Cc3cc(Cl)ccc3OC2)cc1", "0 (no)"),
    ("Cc1nc2ccccc2c(=O)n1/N=C(\\N=N\\c1ccccc1Cl)c1ccccc1", "0 (no)"),
]

Next up:
// query Identify the outcome logged in this assay for the compound shown: `Clc1ccc(-c2c(C3=NCCCN3)nnn2-c2ccc(Cl)cc2)cc1`
// result 0 (no)

====

Tested on: BT-549
Assay: NCI tumour cell line growth inhibition, 48 h
The source made the active and inactive calls. Cut-off read from the data, not from the text of the source: active = GI50 up to about 1.1 µM and inactive = higher.
Could you please pick one outcome from this set? active, inactive

# Compound, Test system, Label value
records = [
    ("COc1cc2c(cc1OC)C(SC)C(=O)N(Cc1cccc(OC)c1OC)CC2 (centres undefined)", "BT-549", "active"),
    ("Cc1ccnc(Nc2[nH]c(C(=O)c3ccc(Cl)cc3)c(N)c2C(=S)Nc2ccccc2)c1", "BT-549", "inactive"),
    ("Nc1ccccc1.O=P(O)(OP(=O)(O)c1ccccc1)c1ccccc1", "BT-549", "inactive"),
]

// query Identify the outcome logged in this assay for the compound shown: `CC(=O)c1c(SCCN2CCOCC2)n(-c2ccccc2)c(=S)n(-c2ccccc2)c1=O`
// result inactive

// query Identify the outcome logged in this assay for the compound shown: C=C1C(=O)OC2C3C(=C)[C@@H](OC(C)=O)CC3C(C)=CC(OC(=O)C(C)(OC(C)=O)C(C)OC(C)=O)[C@@H]12 (some centres undefined)
// result inactive

// query Identify the outcome logged in this assay for the compound shown: CC(=O)C1C(=O)C(=O)N(c2cccc([N+](=O)[O-])c2)C1=O (centres undefined)
// result inactive

// query Identify the outcome logged in this assay for the compound shown: `O=c1c(C(c2ccc(C(c3c(O)oc4cc(O)ccc4c3=O)c3c(O)oc4cc(O)ccc4c3=O)cc2)c2c(O)oc3cc(O)ccc3c2=O)c(O)oc2cc(O)ccc12`
// result inactive

// query Identify the outcome logged in this assay for the compound shown: `[N-]=[N+]=Nc1c(-c2ccccc2)c(=O)n(-c2ccccc2)c2ccccc12`
// result inactive

// query Identify the outcome logged in this assay for the compound shown: `Cc1cc2c(c(O)c1-c1c(C)cc(O)c3c1C(=O)C=CC3=O)C(=O)C=CC2=O`
// result inactive
